Below, each entry is listed alongside its reported self-cleavage kobs at 640 uM GlcN6P.
B1: glmS ribozyme (parent)
chain: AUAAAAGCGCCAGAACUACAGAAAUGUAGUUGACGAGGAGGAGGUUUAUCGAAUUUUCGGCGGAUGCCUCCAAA

# Variants of: B1
# experiment-notes: self-cleavage kobs at 640 uM GlcN6P; higher = faster cleavage; RNA array
# run-conditions: with glucosamine-6-phosphate
This sample holds only a part of the variants without activity.

Sample answers from the record:
sequence-record: AUAAAAGCGCCAGAACUACAGAAAUGUAGUUGACGAGCAGGAAGUUUAUCGAAUUUUCGGCGGGUGCCUCCAAA [G38C G43A A64G]
self-cleavage kobs at 640 uM GlcN6P: < 1e-05 s⁻¹

sequence-record: AUAAAAGCGCCAGAACUACAGAAAUGUAUUUGCCGAGGAGAAGGUUUACCGAAUUUUCGACGGACGCCUCCAAA [G29U A33C G41A U49C G60A U65C]
self-cleavage kobs at 640 uM GlcN6P: < 1e-05 s⁻¹

sequence-record: AUAAAAGCGCCAGAACUACAGAAAUGUAGUUGACGAGGAGGAGGUUUAUCGAAUUUUCGGCAGCUGCCUCCAAA [G62A A64C]
self-cleavage kobs at 640 uM GlcN6P: < 1e-05 s⁻¹

Now for the variant whose self-cleavage kobs at 640 uM GlcN6P we want.
*Q* # query: self-cleavage kobs at 640 uM GlcN6P of entry AUAAAAGCGCCUGGACUACAGAAAUGUAGGUGGCGAGGAGGAGGUUUAUCGAAUUUUCGGCGGAUACCUCCAAA [A12U A14G U30G A33G G66A]
*A* < 1e-05 s⁻¹
